- PROCEDURE TEXT: Viability qHTS for spleen associated tyrosine kinase inhibitor (SYKi) drug resistant MV4-11 cells (AID 1963824); note: nearly all actives have a fitted effect of over 35% in size
- CONDITION LABEL: SYKi-resistant MV4-11 viability, CellTiter-Glo, 72 h; series mostly up to 45 µM
Inconclusive results are not listed. Activity calls are given as the source filed them. Calls come from the whole dose curve; as a rule, active = well fitted cell-killing curve with a large enough effect; inconclusive = small, poorly fitted or top-dose-only effect, or effect the other way; inactive = no such curve, though single readings can be large or run the other way.
Hi there, use one of these labels in your reply, thanks! active, inactive

Hi, sorry to bother you, what did the test record for CC/C=C\C(O)C(O)C1=C(C)C(=O)C2(O1)C(=O)NC(OC)(C(=O)c1ccccc1)C2O (stereo unspecified) ?
inactive

Hi, sorry to bother you, what did the test record for `CN1CCCN=C1/C=C/c1cccs1` ?
inactive

Hi, sorry to bother you, what did the test record for `Nc1ncnc2c1c(-c1ccc(Oc3ccccc3)cc1)cn2C1CCCC1` ?
active
